target.or.system: T1, 4H3777-AA
T1 chain: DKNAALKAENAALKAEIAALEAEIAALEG
assay.protocol: two-hybrid library CCmax;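 also: natural log of median RNA to DNA barcode read ratio; higher means stronger binding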
assay.conditions: mean of both orientations
measured.metric: interaction score

// below: answered binders
- binder: "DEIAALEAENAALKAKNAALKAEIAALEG [4H249-AA]"
  interaction score: -0.457
- binder: "DKIAALKAKNAALEAEIAALEAENAALEG [4H2947-AA]"
  interaction score: -1.93

P: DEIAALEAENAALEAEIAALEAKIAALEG [4H133-AA]
Q: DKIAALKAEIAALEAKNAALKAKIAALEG [4H2621-AA]
Task item: Pick the one with the larger interaction score: P vs Q Indicate your choice by writing its label.
Reply: P

FYI, the data here is from paper PMC10397247.
